# System: bluegrass (annual bluegrass, Poa annua)
# method.description: Test D pre-/postemergence controlled growth environment herbicide test
# Format: in vivo
# condition: Preemergence, 31 g ai/ha, scale 0 to 100
# Plant response rating values compiled below
Please respond with just the number, no unit label.

Here are 3 compounds together with their reported answers.
Value lookup for Plant response rating; key = Cc1cc(=O)n(-c2ccc(F)cc2)nc1Oc1ccnc(C(F)(F)F)c1
0

Value lookup for Plant response rating; key = Cc1cc(=O)n(-c2ccc(C(F)(F)F)cc2)nc1Cc1ccnc(C(F)(F)F)c1
0

Value lookup for Plant response rating; key = COc1cc(=O)n(-c2ccc(F)cc2)nc1Cc1ccnc(C(F)(F)F)c1
0

As a next step, examine the compound that follows.
Value lookup for Plant response rating; key = Cc1cc(=O)n(-c2ccc(F)cc2)nc1Cc1ccnc(C(F)(F)F)c1
0

###

# Test system: waterhemp (common waterhemp, Amaranthus rudis)
# method.description: Test C pre-/postemergence greenhouse herbicide test
# Type: in vivo
# condition: Waterhemp; Postemergence; 62 g ai/ha
# Plant response rating values compiled below
Please respond with just the number, no unit label.

Here are 3 compounds together with their reported answers.
Value lookup for Plant response rating; key = Cc1cc(Oc2ccnc(C(F)(F)F)c2)nn(-c2ccc(C(F)(F)F)cc2)c1=O
98

Value lookup for Plant response rating; key = COc1cc(=O)n(-c2ccc(C(F)(F)F)cc2)nc1Cc1ccnc(C(F)(F)F)c1
90

Value lookup for Plant response rating; key = Cc1cc(=O)n(-c2ccc(C(F)(F)F)cc2)nc1Cc1ccnc(C(F)(F)F)c1
75

As a next step, examine the compound that follows.
Value lookup for Plant response rating; key = Cc1cc(=O)n(-c2ccc(F)cc2)nc1Cc1ccnc(C(F)(F)F)c1
50

###

# pest or weed control at 500 g/ha values compiled below
# Tested on: crabgrass, Large (large crabgrass, Digitaria sanguinalis)
# method.description: Test A pre-/postemergence greenhouse herbicide test
# Type: in vivo
# condition: Digitaria sanguinalis, post-emergence, 240 h; Postemergence, 500 g ai/ha; 0 to 100 scale (0 no effect, 100 complete control), approx. 10 d; read-out: Plant response rating, Crabgrass, Large
Remember to put the unit after the number in your answer.

Here are 4 compounds together with their reported answers.
Value lookup for pest or weed control at 500 g/ha; key = COc1cc(=O)n(-c2ccc(F)cc2)nc1Cc1ccnc(C(F)(F)F)c1
90%

Value lookup for pest or weed control at 500 g/ha; key = Cc1cc(Oc2ccnc(C(F)(F)F)c2)nn(-c2ccc(C(F)(F)F)cc2)c1=O
90%

Value lookup for pest or weed control at 500 g/ha; key = Cc1cc(=O)n(-c2ccc(F)cc2)nc1Cn1ccc(C(F)(F)F)n1
30%

Value lookup for pest or weed control at 500 g/ha; key = Cc1cc(=O)n(-c2ccc(C(F)(F)F)cc2)nc1Cc1ccnc(C(F)(F)F)c1
100%

Continuing:
Value lookup for pest or weed control at 500 g/ha; key = CCOc1cc(=O)n(-c2ccc(F)cc2)nc1C(=O)c1ccnc(C(F)(F)F)c1
100%

Value lookup for pest or weed control at 500 g/ha; key = Cc1cc(=O)n(-c2ccc(F)cc2)nc1Oc1ccnc(C(F)(F)F)c1
90%

Value lookup for pest or weed control at 500 g/ha; key = Cc1cc(=O)n(-c2ccc(C(F)(F)F)cc2)nc1Oc1ccnc(C(F)(F)F)c1
80%

Value lookup for pest or weed control at 500 g/ha; key = CCOc1cc(=O)n(-c2ccc(F)cc2)nc1Cc1ccnc(C(F)(F)F)c1
90%

Value lookup for pest or weed control at 500 g/ha; key = CCOc1cc(=O)n(-c2ccc(F)cc2)nc1C(O)c1ccnc(C(F)(F)F)c1 (centres unmarked)
100%

Value lookup for pest or weed control at 500 g/ha; key = COc1cc(=O)n(-c2ccc(C(F)(F)F)cc2)nc1Cc1ccnc(C(F)(F)F)c1
100%

Value lookup for pest or weed control at 500 g/ha; key = Cc1cc(=O)n(-c2ccc(F)cc2)nc1Cc1ccnc(C(F)(F)F)c1
100%
